experiment: Phase I study, single oral administration: pharmacokinetics in plasma; type: in vivo, human; conditions: male; human plasma; single oral 20 mg; read-out: T½ (converted)
MEASURED_QUANTITY: half-life (h)

# MOLECULE, UNIT, RECORDED_RESULT
data = [
    ("C=C1CC2(CCN(C)CC2)O[C@H]1C [compound A]", "h", 3.88),
]

###

assay: Phase I study, single oral administration: pharmacokinetics in plasma; format: in vivo, human; settings: male, plasma, oral; human; 20 mg administration

# ITEM_SMILES, UNIT, AUC
rows = [
    ("C=C1CC2(CCN(C)CC2)O[C@H]1C", "ng·h/mL", 410),
]

###

assay: Phase I study, single oral administration: pharmacokinetics in plasma; assay type: in vivo, human; conditions: male; human plasma; single oral 5 mg

# ITEM_SMILES, Cmax, ng/mL
rows = [
    ("C=C1CC2(CCN(C)CC2)O[C@H]1C", 19.8),
]

###

experiment: Phase I study, single oral administration: pharmacokinetics in plasma; type: in vivo, human; conditions: male; human plasma; single oral 20 mg
MEASURED_QUANTITY: Cmax (ng/mL)

# ITEM_SMILES, MEASURED_QUANTITY, RECORDED_RESULT
records = [
    ("C=C1CC2(CCN(C)CC2)O[C@H]1C", "Cmax", 68.1),
]

###

assay: Phase I study, single oral administration: pharmacokinetics in plasma; assay type: in vivo, human; details: male; human plasma; single oral 60 mg

# COMPOUND, Cmax [ng/mL]
data = [
    ("C=C1CC2(CCN(C)CC2)O[C@H]1C [compound A]", 266),
]

###

assay: Phase I study, single oral administration: pharmacokinetics in plasma; assay type: in vivo, human; settings: male; human plasma; single oral 60 mg

# ITEM_SMILES, Tmax / h
measured = [
    ("C=C1CC2(CCN(C)CC2)O[C@H]1C", 1.6),
]

###

test: Phase I study, single oral administration: pharmacokinetics in plasma; type: in vivo, human; conditions: male; human plasma; single oral 5 mg; read-out: T½ (converted)

# COMPOUND, UNIT, half-life
data = [
    ("C=C1CC2(CCN(C)CC2)O[C@H]1C [compound A]", "min", 233),
]

###

test: Phase I study, single oral administration: pharmacokinetics in plasma; type: in vivo, human; conditions: male, plasma; human; 40 mg oral administration

# COMPOUND, AUC
rows = [
    ("C=C1CC2(CCN(C)CC2)O[C@H]1C [compound A]", "1010 ng·h/mL"),
]

###

experiment: Phase I study, single oral administration: pharmacokinetics in plasma; format: in vivo, human; details: male, plasma, oral; human test result which used general tablets containing the compound A
MEASURED_QUANTITY: Tmax

# ITEM_SMILES, MEASURED_QUANTITY, RECORDED_RESULT
records = [
    ("C=C1CC2(CCN(C)CC2)O[C@H]1C", "Tmax", "~2 h"),
]

###

assay: Phase I study, single oral administration: pharmacokinetics in plasma; type: in vivo, human; details: male; human plasma; single oral 5 mg

# COMPOUND, UNIT, Tmax
measured = [
    ("C=C1CC2(CCN(C)CC2)O[C@H]1C [compound A]", "h", 1.5),
]

###

test: Phase I study, single oral administration: pharmacokinetics in plasma; format: in vivo, human; conditions: male; human plasma; single oral 10 mg

# ITEM_SMILES, Tmax, h
data = [
    ("C=C1CC2(CCN(C)CC2)O[C@H]1C", 1.17),
]
